Reference source: PubChem BioAssay AID2060909

Test system: 362531-283-R-J2-PDC complex spheroid viability;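 note: spheroids exposed to the agents for 7 days before readout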
Experiment: Anticancer human tumor 362531-283-R-J2-PDC patient-derived colon adenocarcinoma cell line growth inhibition [RAS]
Settings: curve of first compound; second compound 0.000949 µM
pIC50: −log10 of the molar value.
measure.name: pIC50

In the examples that follow, each entry is paired with its recorded pIC50.
compound	measure.name	readout.number
CC(=O)OC12COC1CC(O)C1(C)C(=O)C(O)C3=C(C)C(OC(=O)C(O)C(NC(=O)OC(C)(C)C)c4ccccc4)CC(O)(C(OC(=O)c4ccccc4)C21)C3(C)C (stereo not drawn) + CCn1c(-c2cc(N3CCN(C)CC3)cnc2C(C)OC)c2c3cc(ccc31)-c1csc(n1)CC(NC(=O)C1CC1C)C(=O)N1CCCC(N1)C(=O)OCC(C)(C)C2	pIC50	6.67
NC1c2ccccc2OC12CCN(c1cnc3c(N4CCCc5ncccc54)n[nH]c3n1)CC2 (stereo not drawn) + CCn1c(-c2cccnc2C(C)OC)c2c3cc(ccc31)N1CCOC(CC(NC(=O)C(C(C)C)N(C)C(=O)C3(F)CCN(C(=O)C#CC(C)(C)N(C)C)CC3)C(=O)N3CCCC(N3)C(=O)OCC(C)(C)C2)C1	pIC50	5.26

P = Nc1ccn(C2OC(CO)C(O)C2(F)F)c(=O)n1 (stereo not drawn) + CCn1c(-c2cc(N3CCN(C)CC3)cnc2C(C)OC)c2c3cc(ccc31)-c1csc(n1)CC(NC(=O)C1CC1C)C(=O)N1CCCC(N1)C(=O)OCC(C)(C)C2
Q = CCc1c2c(nc3ccc(O)cc13)-c1cc3c(c(=O)n1C2)COC(=O)[C@]3(O)CC + CCn1c(-c2cc(N3CCN(C)CC3)cnc2C(C)OC)c2c3cc(ccc31)-c1csc(n1)CC(NC(=O)C1CC1C)C(=O)N1CCCC(N1)C(=O)OCC(C)(C)C2
Given P and Q , report the one with the higher recorded pIC50. Pick one; state its label.
Q
